Entries annotated with measured TGI
Test system: NCI-H460 lung
Assay: NCI tumour cell line growth inhibition, 48 h

Solved entries:
stdin: Kindly state the measured TGI obtained for O=C(NN1C(=O)C(Cl)C1c1ccc(O)cc1)c1ccccc1O (stereo unspecified) with NCI-H460 lung.
stdout: 35.7 µM

stdin: Kindly state the measured TGI obtained for CCCCCC(=O)N[C@H]1CCc2cc(O)c(O)c(O)c2-c2ccc(SC)c(=O)cc21 with NCI-H460 lung.
stdout: > 100 µM

stdin: Kindly state the measured TGI obtained for C[N+](C)(C)CCN(Cc1cccs1)c1ccccn1 with NCI-H460 lung.
stdout: > 100 µM

stdin: Kindly state the measured TGI obtained for CCO/C=N/C1=C(C#N)C(c2ccc(OC)cc2)c2sc3c(F)cccc3c2O1 (stereo unspecified) with NCI-H460 lung.
stdout: 13.5 µM

stdin: Kindly state the measured TGI obtained for COc1ccc(/C(=N/O)C(c2ccc(OC)cc2)C2C(=O)Oc3ccccc32)cc1 (stereo unspecified) with NCI-H460 lung.
stdout: > 100 µM

Now let's try a different one.
stdin: Kindly state the measured TGI obtained for CC(C)NCCCC(C)Nc1ccnc2ccc3nn(C)nc3c12 (stereo unspecified) with NCI-H460 lung.
stdout: > 100 µM
